Emax values by entry
study.target: M4 muscarinic receptor (Homo sapiens)
Construct: expressed in transfected cells; host or cells: CHO (M4-CHO recombinant cell line)
assay.overview: Functional mobilization of intracellular calcium (FLIPR) in CHO cells expressing M4 muscarinic receptor
Format: cell-based
condition.description: CHO; 100% efficacy is the maximum response obtained with the Carbachol control
metric.name: Emax

CC(C)NC(=O)C1=CC2(CCN(CC3CC4C=CC3C4)CC2)c2ccccc21 (centres unmarked) [compound 66] :: 25 to 100%
O=C(NC1CCC1)C1=CC2(CCN(CC3CC4C=CC3C4)CC2)c2ccccc21 (centres unmarked) [compound 47] :: 25 to 100%
CCOC(=O)N1CCC(N2CCC3(CC=C(C(=O)NC(C)C)c4ccccc43)CC2)CC1 [compound 72] :: 25 to 100%
CCCC(C)NC(=O)C1=CC2(CCN(CC3CC4C=CC3C4)CC2)c2ccccc21 (centres unmarked) [compound 50] :: 25 to 100%
CCCOC(=O)N1CCC(N2CCC3(C=C(C(=O)NC(CC)CC)c4ccccc43)CC2)CC1 [compound 42] :: < 25%
N#CC1=CCC2(CCN(C3C[C@@H]4CC[C@@H]3C4)CC2)c2ccccc21 (some centres unmarked) [compound 35] :: < 25%
CCC(CC)NC(=O)C1=CC2(CCN(C3CCN(C(=O)C4CC4)CC3)CC2)c2ccccc21 [compound 45] :: 25 to 100%
CNC(=O)C1=CC2(CCN(CC3CC4C=CC3C4)CC2)c2ccccc21 (centres unmarked) [compound 69] :: 25 to 100%
CCC(CC)NC(=O)C1=CC2(CCN(C3CCN(C(=O)OC)CC3)CC2)c2ccccc21 [compound 71] :: 25 to 100%
CC(C)NC(=O)C1=CC2(CCN(CCC(C)(C)C)CC2)c2ccccc21 [compound 70] :: 25 to 100%
CCOC(=O)N1C2CCC1CC(N1CCC3(C=C(C(=O)NC(CC)CC)c4ccccc43)CC1)C2 (centres unmarked) [compound 75] :: 25 to 100%

###

Recorded measurements of Emax, one per entry
study.target: M1 muscarinic receptor (Homo sapiens, UniProt P11229)
Construct: expressed in transfected cells; host or cells: CHO (M1-CHO recombinant cell line)
assay.overview: Functional mobilization of intracellular calcium (FLIPR) in CHO cells expressing M1 muscarinic receptor
Format: cell-based
condition.description: CHO; 100% efficacy is the maximum response obtained with the Carbachol control
metric.name: Emax

O=C(O)C1=CC2(CCN(CC3CCCCC3)CC2)c2ccccc21 [compound 54] :: < 25%
CCC(CC)NC(=O)C1=CC2(CCNCC2)c2ccccc21 [compound 57] :: < 25%
CN(C)C(=O)C1=CC2(CCN(C3C[C@@H]4CC[C@@H]3C4)CC2)c2ccccc21 (some centres unmarked) [compound 64] :: < 25%
CC(C)(C)CCN1CCC2(C=C(C(=O)N3CCCCC3)c3ccccc32)CC1 [Compound No. 37] :: 25 to 100%
CNC(=O)C1=CC2(CCN(CCC(C)(C)C)CC2)c2ccccc21 [Compound No. 27] :: 25 to 100%
CN(C)C(=O)C1=CC2(CCN(CC3CC4C=CC3C4)CC2)c2ccccc21 (centres unmarked) [compound 67] :: 25 to 100%
CCC(CC)NC(=O)C1=CC2(CCN(CCC(C)C)CC2)c2ccccc21 [compound 40] :: < 25%
CCOC(=O)N1CCC(N2CCC3(C=C(C(=O)N(C)C)c4ccccc43)CC2)CC1 [compound 60] :: 25 to 100%
CCCOC(=O)N1CCC(N2CCC3(C=C(C(=O)NC(CC)CC)c4ccccc43)CC2)CC1 [compound 42] :: < 25%
CN(C)C(=O)C1=CC2(CCN(CC3CCCCC3)CC2)c2ccccc21 [compound 59] :: < 25%
CC(C)(C)CCN1CCC2(C=C(C(=O)NC3CCCCC3)c3ccccc32)CC1 [compound 25] :: 25 to 100%
CCC(CC)NC(=O)C1=CC2(CCN(C3CCCCCC3)CC2)c2ccccc21 [Compound No. 3] :: < 25%
CCC(CC)NC(=O)C1=CC2(CCN(C3CCN(C(=O)C(C)C)CC3)CC2)c2ccccc21 [compound 22] :: < 25%
CCOC(=O)N1CCC(N2CCC3(CC=C(C(=O)N(C)C)c4ccccc43)CC2)CC1 [compound 4] :: 25 to 100%
CNC(=O)C1=CC2(CCN(CCC3CCSCC3)CC2)c2ccccc21 [compound 9] :: 25 to 100%
CCC(CC)NC(=O)C1=CC2(CCN(CCC(C)(C)C)CC2)c2ccccc21 [compound 39] :: < 25%
O=C(C1=CCC2(CCN(C3C[C@@H]4CC[C@@H]3C4)CC2)c2ccccc21)N1CCCC1 (some centres unmarked) [compound 29] :: < 25%

###

study.target: M4 muscarinic receptor (Homo sapiens, UniProt P08173)
Construct: expressed in transfected cells; host or cells: CHO (M4-CHO recombinant cell line)
Sequence (P08173 whole entry): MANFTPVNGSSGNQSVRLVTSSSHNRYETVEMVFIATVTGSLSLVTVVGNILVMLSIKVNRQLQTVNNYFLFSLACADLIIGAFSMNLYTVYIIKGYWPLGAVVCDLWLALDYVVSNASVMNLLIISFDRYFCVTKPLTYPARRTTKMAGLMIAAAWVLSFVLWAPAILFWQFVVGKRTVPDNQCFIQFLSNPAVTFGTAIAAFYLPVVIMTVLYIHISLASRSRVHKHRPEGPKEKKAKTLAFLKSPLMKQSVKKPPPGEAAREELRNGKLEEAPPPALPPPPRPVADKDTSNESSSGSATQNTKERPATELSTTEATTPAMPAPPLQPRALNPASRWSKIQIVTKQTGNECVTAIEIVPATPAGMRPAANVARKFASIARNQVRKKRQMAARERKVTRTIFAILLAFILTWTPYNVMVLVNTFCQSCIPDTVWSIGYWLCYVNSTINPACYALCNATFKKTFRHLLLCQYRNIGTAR
assay.overview: Functional mobilization of intracellular calcium (FLIPR) in CHO cells expressing M4 muscarinic receptor
Format: cell-based
condition.description: CHO; 100% efficacy is the maximum response obtained with the Carbachol control
metric.name: Emax

CCOC(=O)N1C2CCC1CC(N1CCC3(C=C(C(=O)O)c4ccccc43)CC1)C2 (centres unmarked) :: 25 to 100%
CN(C)C(=O)C1=CCC2(CCN(C3C[C@@H]4CC[C@@H]3C4)CC2)c2ccccc21 (some centres unmarked) :: < 25%
CC(C)(C)CCN1CCC2(CC=C(C(=O)N3CCCC3)c3ccccc32)CC1 :: < 25%
CC(C)(C)CCN1CCC2(C=C(C(=O)NC3CCCCC3)c3ccccc32)CC1 :: < 25%
CN(C)C(=O)C1=CC2(CCN(CC3CC4C=CC3C4)CC2)c2ccccc21 (centres unmarked) :: 25 to 100%
CNC(=O)C1=CC2(CCN(C3CCCCCC3)CC2)c2ccccc21 :: 25 to 100%
CCC(CC)NC(=O)C1=CC2(CCN(CCC(C)C)CC2)c2ccccc21 :: 25 to 100%
CNC(=O)C1=CC2(CCN(CCC(C)CCCC(C)(C)OC)CC2)c2ccccc21 (centres unmarked) :: < 25%

###

Reported Emax is given for each of the following compounds.
study.target: M1 muscarinic receptor (Homo sapiens, UniProt P11229)
Construct: expressed in transfected cells; host or cells: CHO (M1-CHO recombinant cell line)
Sequence (P11229 1-460): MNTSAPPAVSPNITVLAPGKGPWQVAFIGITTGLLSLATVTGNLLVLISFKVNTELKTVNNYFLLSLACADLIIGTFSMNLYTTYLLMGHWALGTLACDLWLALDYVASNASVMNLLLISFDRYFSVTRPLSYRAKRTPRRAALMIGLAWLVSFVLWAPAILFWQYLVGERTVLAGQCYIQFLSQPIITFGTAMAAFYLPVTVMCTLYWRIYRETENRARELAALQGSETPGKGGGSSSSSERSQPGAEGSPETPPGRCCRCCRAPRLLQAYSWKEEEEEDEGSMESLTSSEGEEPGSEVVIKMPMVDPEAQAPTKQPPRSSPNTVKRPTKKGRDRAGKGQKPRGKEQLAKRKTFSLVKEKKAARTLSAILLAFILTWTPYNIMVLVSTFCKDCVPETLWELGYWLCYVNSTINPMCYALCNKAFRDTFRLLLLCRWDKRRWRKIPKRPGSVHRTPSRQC
assay.overview: Functional mobilization of intracellular calcium (FLIPR) in CHO cells expressing M1 muscarinic receptor
Assay type: cell-based
condition.description: CHO; 100% efficacy is the maximum response obtained with the Carbachol control
metric.name: Emax

CCC(CC)NC(=O)C1=CC2(CCN(C3CCN(C(C)=O)CC3)CC2)c2ccccc21 [compound 10] :: < 25%
CCC(CC)NC(=O)C1=CC2(CCN(C3CCN(C(=O)OC)CC3)CC2)c2ccccc21 [compound 71] :: < 25%
CNC(=O)C1=CC2(CCN(CCCCSC)CC2)c2ccccc21 [compound 49] :: < 25%
CN(C)C(=O)C1=CC2(CCN(C3CCCCC3)CC2)c2ccccc21 [compound 61] :: < 25%
CNC(=O)C1=CC2(CCN(CC3CCCCC3)CC2)c2ccccc21 [Compound No. 6] :: 25 to 100%
CC(C)(C)CCN1CCC2(C=C(C(=O)NC3CCCC3)c3ccccc32)CC1 [compound 77] :: 25 to 100%
CCOC(=O)N1C2CCC1CC(N1CCC3(C=C(C(=O)NC(CC)CC)c4ccccc43)CC1)C2 (centres unmarked) [compound 75] :: 25 to 100%
O=C(C1=CCC2(CCN(CC3CC4C=CC3C4)CC2)c2ccccc21)N1CCCC1 (centres unmarked) [compound 34] :: 25 to 100%

###

study.target: M4 muscarinic receptor (Homo sapiens)
Construct: expressed in transfected cells; host or cells: CHO (M4-CHO recombinant cell line)
assay.overview: Functional mobilization of intracellular calcium (FLIPR) in CHO cells expressing M4 muscarinic receptor
Assay type: cell-based
condition.description: CHO; 100% efficacy is the maximum response obtained with the Carbachol control
Description: VI. Assays for Detecting and Measuring Inhibition Properties of Compounds Functional Mobilization of Intracellular Calcium to Determine Muscarinic Receptor Activity: […] The potency, efficacy and selectivity of the muscarinic compounds were evaluated by screening the compound activity across the whole family (M1 to M5 cells). […]
This listing pairs molecules with measured Emax.
metric.name: Emax

CCC(CC)NC(=O)C1=CC2(CCN(CCC3CCSCC3)CC2)c2ccccc21 :: < 25%
CC(C)(C)CCN1CCC2(CC=C(C#N)c3ccccc32)CC1 :: 25 to 100%
CCC(CC)NC(=O)C1=CC2(CCN(C3CCNCC3)CC2)c2ccccc21 :: < 25%
CN(C)C(=O)C1=CC2(CCN(C3C[C@@H]4CC[C@@H]3C4)CC2)c2ccccc21 (stereo partly shown) :: 25 to 100%
CCOC(=O)N1CCC(N2CCC3(CC=C(C#N)c4ccccc43)CC2)CC1 :: 25 to 100%
CC(C)(C)CCN1CCC2(C=C(C(=O)O)c3ccccc32)CC1 :: < 25%
CCOC(=O)N1CCC(N2CCC3(C=C(C(=O)NC(CC)CC)c4ccccc43)CC2)CC1 :: 25 to 100%
CC(C)NC(=O)C1=CCC2(CCN(CCC(C)(C)C)CC2)c2ccccc21 :: < 25%
CC(C)NC(=O)C1=CCC2(CCN(C3C[C@@H]4CC[C@@H]3C4)CC2)c2ccccc21 (stereo partly shown) :: < 25%
CCC(CC)NC(=O)C1=CC2(CCN(C3CCCCC3)CC2)c2ccccc21 :: 25 to 100%
CCC(CC)NC(=O)C1=CC2(CCN(CCC(C)(C)C)CC2)c2ccccc21 :: 25 to 100%
CNC(=O)C1=CC2(CCN(CCC3CCOCC3)CC2)c2ccccc21 :: < 25%
CN(C)C(=O)C1=CC2(CCN(CCC(C)(C)C)CC2)c2ccccc21 :: 25 to 100%
CNC(=O)C1=CC2(CCN(CCC(C)(C)C)CC2)c2ccccc21 :: 25 to 100%
CCOC(=O)N1C2CCC1CC(N1CCC3(CC=C(C(=O)N4CCCC4)c4ccccc43)CC1)C2 (stereo not shown) :: 25 to 100%
CCC(CC)NC(=O)C1=CC2(CCN(CC3CCCCC3)CC2)c2ccccc21 :: 25 to 100%
O=C(C1=CCC2(CCN(C3C[C@@H]4CC[C@@H]3C4)CC2)c2ccccc21)N1CCCC1 (stereo partly shown) :: < 25%
CN(C)C(=O)C1=CC2(CCN(C3CCCCCC3)CC2)c2ccccc21 :: 25 to 100%
CCOC(=O)N1CCC(N2CCC3(C=C(C(=O)NC)c4ccccc43)CC2)CC1 :: 25 to 100%
CN(C)C(=O)C1=CC2(CCN(CC3CCCCC3)CC2)c2ccccc21 :: 25 to 100%
CCOC(=O)N1CCC(N2CCC3(CC=C(C(=O)N(C)C)c4ccccc43)CC2)CC1 :: 25 to 100%
CCC(CC)NC(=O)C1=CC2(CCN(C3CCN(C(C)=O)CC3)CC2)c2ccccc21 :: < 25%
CCC(CC)NC(=O)C1=CC2(CCN(C3CCN(C(=O)N(C)C)CC3)CC2)c2ccccc21 :: < 25%
CNC(=O)C1=CC2(CCN(CCCCSC)CC2)c2ccccc21 :: < 25%
CCC(CC)NC(=O)C1=CC2(CCN(C3C[C@@H]4CC[C@@H]3C4)CC2)c2ccccc21 (stereo in doubt) :: 25 to 100%
CCOC(=O)C1=CC2(CCN(CCC(C)(C)C)CC2)c2ccccc21 :: 25 to 100%
CNC(=O)C1=CC2(CCN(CCC3CCSCC3)CC2)c2ccccc21 :: < 25%
CCC(CC)NC(=O)C1=CC2(CCNCC2)c2ccccc21 :: < 25%
O=C(O)C1=CC2(CCN(C3C[C@@H]4CC[C@@H]3C4)CC2)c2ccccc21 (stereo in doubt) :: 25 to 100%
O=C(O)C1=CC2(CCN(CC3CCCCC3)CC2)c2ccccc21 :: < 25%
CN(C)C(=O)C1=CCC2(CCN(CCC(C)(C)C)CC2)c2ccccc21 :: 25 to 100%
O=C(C1=CCC2(CCN(CC3CC4C=CC3C4)CC2)c2ccccc21)N1CCCC1 (stereo not shown) :: < 25%
CC(C)(C)CCN1CCC2(C=C(C(=O)N3CCCCC3)c3ccccc32)CC1 :: 25 to 100%
CNC(=O)C1=CC2(CCN(C3CCCCC3)CC2)c2ccccc21 :: 25 to 100%

Attribution: patent US7858790B2
